# method-description: Siderophore:iron binding assay (paper chromatography)
# measurement-conditions: 55Fe mobilised by compound on paper chromatogram developed in water; Yes/No
Where a name gives a salt, the structure may show the parent alone.
property: Fe: Chromatography

Example entries and their recorded answers appear below.
{"compound": "O=C(O)c1cccc(O)c1O [2,3- Dihydroxybenzoic acid]", "result": "Yes"}
{"compound": "O=C1CC(C(=O)O)NC(=O)N1 (racemic)", "result": "No"}
{"compound": "O=c1oc2c(O)c(O)cc3c(=O)oc4c(O)c(O)cc1c4c23", "result": "Yes"}
{"compound": "NCCc1cc(O)c(O)cc1O [6-Hydroxydopamine]", "result": "No"}

Enquiry: Reported Fe: Chromatography for `O=C(/C=C/c1ccc(O)c(O)c1)OCCc1ccccc1` : what is it?
Return: No

Enquiry: Entry CCC1C(=O)NC(CC2=N/C(=C\c3[nH]c(CC4NC(=O)C(C)C4CC)c(C)c3CCC(=O)O)C(CCC(=O)O)=C2C)C1C (stereo not shown) [Urobilin HCl] has what Fe: Chromatography?
Return: No

Enquiry: # Fe: Chromatography lookup, item `O=C(O)c1cc(=O)[nH]c(=O)[nH]1`
Return: No
